Hey, just so you know, these numbers are from the DeepSol protein solubility set.

experiment: soluble on expression in E. coli; label from the status in PepcDB or PDB records
readout: soluble on expression in E. coli

MGSDKIHHHHHHMETRRDERIGQLLQALKRSDKLHLKEAATLLGVSEMTIRRDLNHKSAPVVLLGGYIVLEPRSASHYLLSDQKSRLVEEKRRAAQLAAGLVQAHQTVFIDCGTTTPWIIEAIDNDLPFTAVCYSLNTFLALQDKPHCRAILSGGEFHASNAIFKPLDFHETLNNICPDIAFYSAAGVHTSKGATCFNLEELPVKHWAMTMAQCHVLVVDHSKFGKVRPARMGELSRFDTIISDRRPDEAFVAYAKAQQITLMY ... not soluble
MNKFLGMYNTNTSNGGFVMSEKIYLKIDQQRYVKKPRVTIGDVMTVYCSDKDMIEKIGHITLAEFTLGKYDRKVFDALDVVGIIQKEYPDADIECLGECDFVVEYKKPEKEGTVH ... not soluble
MKRYRTLLFDVDDTILDFQAAEALALRLLFEDQNIPLTNDMKAQYKTINQGLWRAFEEGKMTRDEVVNTRFSALLKEYGYEADGALLEQKYRRFLEEGHQLIDGAFDLISNLQQQFDLYIVTNGVSHTQYKRLRDSGLFPFFKDIFVSEDTGFQKPMKEYFNYVFERIPQFSAEHTLIIGDSLTADIKGGQLAGLDTCWMNPDMKPNVPEIIPTYEIRKLEELYHILN ... not soluble

* * *

assay: soluble on expression in E. coli; label from the status in PepcDB or PDB records
readout: soluble on expression in E. coli

MEVPENLKNPQNARREGSNMKCLADYSVEKEVGEGSFSTVYLARRKEPKNDENPEVALKICLKRLILKNKMVPYIHREKEALALISREENAHPGIVTLYATFQDSESLYFVLEYAKYGDLCTLMQKQPDSKFNVADSRYYAANLLSALEHIHKLGIIHRDVKADNLLVKSDGRIMLTDFGSSKFLSDYQKIQENPVEEEQPTGRRSSFVGTAFFVTPELLTGSEMSPSSDLWAFSVTLYLFLTGIYPFNDMSEYLVFRRIQDILYTFSEDFPDENAKNLIERLLVKEQKSRLTSQEIKEHKFFESIDFEHLEQLEPPRIY ... not soluble
GPGSMQKQHAPGRGLVLHSHKVKGQQQERNDSLVQCAQHPPLQKRVNPHPHSHSSKPIPNIFVVITGLVVNPRTGSFHDFRSPCFPPPRGGGKGRNAWGNRNGEKVEAALAALQIGIFGDQHHIAGKEACQVDKKPSCSFFLTWPHILPTRFQRKKKRKNY ... not soluble
MMRDSPSIQGTLDAATQHALLAGRHADPFSVLGPHQAGAHTVVRVLAPGARTVMAVLPGGQRTPLLPMQPGLFENTVPGLQPGAPAAYRLCIEWEGGIQHTADPYAFGPVLD ... not soluble

* * *

experiment: soluble on expression in E. coli; label from the status in PepcDB or PDB records
readout: soluble on expression in E. coli

MSLAAVILDYNGVIGLQPTTDQWLRLARTALWPEDDLPAFQNAFWTARTAYDAGHLSDLAYWATVLGHHPGARRLRGLRDADTDMWTSIDDHVIDVLHQAHESGLPLVLLSNAPRHLSDVLDRRPWRRLMTHAFYSARLQVCKPDPAAYQHAMNATGAADPDRVLFVDDRADNCHAARHLGLRTLHYTGHPTDLAAALQPPNEGHHHHHH ... soluble
MGHHHHHHSHMKYGNPNYGGMKGILSNSWKRRYHSRRIQRDVIKKRALIGDDVGLTSYKHRHSGLVNVPEEPIEEEEEEEEEEEEEEEEDQDMDADDRVVVEYHEELPALKQPRERSASRRSSASSSDSDEMDYDLELKMISTPSPKKSMKMTMYADEVESQLKNIRNSMRADSVSSSNIKNRIGNKLPPEKFADVRHLLDEKRQHSRPRPPVSSTKSDIRQRLGKRPHSPEKAFSSNPVVRREPSSDVHSRLGVPRQDSKGLYADTREKKSGNLWTRLGSAPKTKEKNTKKVDHRAPGAEEDDSELQRAWGALIKEKEQSRQKKSRLDNLPSLQIEVSRESSSGSEAES ... not soluble
GSMPHIKGHEGDPCLRSSDCIDGFCCARHFWTKICKPVLHQGEVCTKQRKKGSHGLEIFQRCDCAKGLSCKVWKDATYSSKARLHVCQKI ... soluble
STFQFNFTIEDHLENELTPIRDGALTLDSSKELSVSESQKGEERDRKCSAEQFDLPQDHLWEHKSMENAAPSQDTDSPLSAASSSRNLEPHGKQPSLRAAKEHAMPKDLKKMLENKVIETLPGFQHVKLSVVKTILLKENFPGENIVSKSFSSHSDLITGVYEGGLKIWECTFDLLAYFTKAKVKFAGKKVLDLGCGSGLLGITAFKGGSKEIHFQDYNSMVIDEVTLPNVVANSTLEDEENDVNEPDVKRCRKPKVTQLYKCRFFSGEWSEFCKLVLSSEKLFVKYDLILTSETIYNPDYYSNLHQTFLRLLSKNGRVLLASKAHYFGVGGGVHLFQKFVEERDVFKTRILKIIDEGLKRFIIEITFKFPG ... not soluble
METAKEMTRESLPIKCLEAVILGIYLTNGQPSIERFPISFKTYFSGNYFHHVVLGIYCNGRYGSLGMSRRAELMDKPLTFRTLSDLIFDFEDSYKKYLHTVKKVKIGLYVPHEPHSFQPIEWKQLVLNVSKMLRADIRKELEKYARDMRMKGLCSH ... soluble

Then there is this sequence:
### Prompt What value of soluble on expression in E. coli has been recorded for this entry: MSTPRQILAAIFDMDGLLIDSEPLWDRAELDVMASLGVDISRRNELPDTLGLRIDMVVDLWYARQPWNGPSRQEVVERVIARAISLVEETRPLLPGVREAVALCKEQGLLVGLASASPLHMLEKVLTMFDLRDSFDALASAEKLPYSKPHPQVYLDCAAKLGVDPLTCVALEDSVNGMIASKAARMRSIVVPAPEAQNDPRFVLSNVKLSSLTELTAKDLLG
### Response soluble
